Listing of entries alongside the reported absorption maximum.
assay: solvent given as SMILES; settings: in CCCCCCCCCCCCCC
Express your answer in nm, writing the number without its unit.

Would you please look over these solved cases?
CCCCCCC(CCCCCC)N1C(=O)c2cccc3c(-c4ccccc4)ccc(c23)C1=O 343.4
CCCCCCC(CCCCCC)N1C(=O)c2cccc3c(-c4ccc(C#N)cc4)ccc(c23)C1=O 356.2
Cc1ccsc1-c1ccc(-c2ccc(-c3sccc3C)s2)s1 382
c1csc(-c2ccc(-c3ccc(-c4cccs4)s3)s2)c1 391
CCCCCCC(CCCCCC)N1C(=O)c2cccc3c(-c4ccc(N(C)C)cc4)ccc(c23)C1=O 403.8

// fetch absorption maximum given entry COc1ccsc1-c1ccc(-c2ccc(-c3sccc3OC)s2)s1
409

Return the recorded absorption maximum value; entry: CCCCCCCCCCc1cc(-c2cc(CCCCCCCCCC)c(-c3cccs3)s2)sc1-c1cccs1
380

====

assay: solvent given as SMILES; conditions: in OCC(F)(F)F
Class Satisfied: absorption maximum at least 500 nm. Class Not satisfied: absorption maximum below 500 nm.

Would you please look over these solved cases?
O=C1/C(=C/C=C/c2cc3c4c(c2)CCCN4CCC3)CC/C1=C\C=C\c1cc2c3c(c1)CCCN3CCC2 Satisfied
Nc1ccccc1C(=O)O Not satisfied
CCC1=C(C)C2=Cc3cc(I)c(I)n3[B-](F)(F)[N+]2=C1C Satisfied

Shift focus to the following entry.
Does C#CCNC1=C2C=CC=[N+]2[B-](F)(F)n2cccc21 have a reported absorption maximum of at least 500 nm?
Not satisfied

====

test: solvent given as SMILES; settings: in CC#N
Please use YES whenever absorption maximum is not below 400 nm, and NO whenever it is.

compound	assigned.label
FC(F)(F)c1ccc(-c2pc3ccccc3s2)cc1 (stereo not given)	NO

Evaluate C=CCNc1ccc2ccc3oc4cc(=O)ccc-4nc3c2c1 : absorption maximum at minimum 400 nm?
YES

Kindly determine if absorption maximum recorded for Nc1cc2ccc3cccc4ccc(c1)c2c34 is above or exactly 400 nm.
NO

====

Let's look at some compounds and their measured absorption maximum.
test: solvent given as SMILES; conditions: in ClC(Cl)Cl
Answer as a quantity: numeral, then unit.

Known absorption maximum results, listed for orientation:
c1csc(-c2cnc(-c3cccs3)c3nonc23)c1 464 nm
CN(C)c1cccc2c1ccc1c(=O)oc(-c3ccc(C(F)(F)F)cc3)cc12 395 nm
CCCCCCCCN1c2ccc(C#Cc3ccc(OC)cc3)cc2Sc2cc(C=O)ccc21 382.5 nm
F[B-]1(F)n2c(Nc3cccc4cccnc34)ccc2C(c2ccccc2)=C2C=CC(Cl)=[N+]21 555 nm
CCC1=C(CC)C(C)=[N+]2C1=Cc1c(C)c3cc4c(cc3n1[B-]2(F)F)=[N+]1C(=Cc2c(CC)c(CC)c(C)n2[B-]1(F)F)C=4C 692 nm

Quote absorption maximum reported for CCCCN1C(=O)c2ccc3c4ccc5c6c(ccc(c7ccc(c2c37)C1=O)c64)C(=O)N(CCCC)C5=O please.
526 nm

Supply recorded absorption maximum for C[N+]1=C(/C=C/C2=C3Oc4c(cc5c6c4CCCN6CCC5)C(c4ccccc4C(=O)O)=C3CCC2)C(C)(C)c2c1ccc1ccccc21 here.
746 nm

For the compound O=C1[C@@H]2[C@H](C(=O)N1c1ccc3cc4ccccc4cc3c1)[C@@H]1C=C[C@H]2C1 , report absorption maximum.
380 nm

Give reported absorption maximum value for CCOC(=O)/C=C/C1=C(c2ccc(C)cc2)C2=Nc3c(-c4ccc(C)cc4)cc(-c4ccc(C)cc4)n3[B-](F)(F)[N+]2=C1c1ccc(C)cc1
663 nm

Return the recorded absorption maximum value; entry: N#CC(C#N)=C(c1cccc(N(c2ccccc2)c2ccccc2)c1)c1cccc(N(c2ccccc2)c2ccccc2)c1
382.14 nm

Output absorption maximum of C#CCn1c2ccccc2c2cc(/C=C/C3=[N+]4C(=C(c5ccc(I)cc5)c5c(C)c(Cl)c(/C=C/c6ccc7c(c6)c6ccccc6n7CC#C)n5[B-]4(F)F)C(C)=C3Cl)ccc21
703 nm

====

Listing of entries alongside the reported absorption maximum.
test: solvent given as SMILES; settings: in Cc1ccccc1
Write down the numeric answer in nm and omit the unit.

The following compounds have reported results that may help.
compound	readout.unit	absorption maximum
C(=C\c1ccccn1)/c1ccc(N(c2ccc(/C=C/c3ccccn3)cc2)c2ccc(-c3nc4ccccc4nc3-c3ccc(N(c4ccc(/C=C/c5ccccn5)cc4)c4ccc(/C=C/c5ccccn5)cc4)cc3)cc2)cc1	nm	378
COCCC1=Cc2nc1ccc1[nH]c(c3nc(ccc4[nH]c2cc4CCOC)C(CCOC)=C3)c(CN(C)C)c1CCOC	nm	643
CCCCC(CC)CN1C(=O)c2cccc3c(C#Cc4ccc(N(c5ccc(C#Cc6ccc7c8c(cccc68)C(=O)N(CC(CC)CCCC)C7=O)cc5)c5ccc(C#Cc6ccc7c8c(cccc68)C(=O)N(CC(CC)CCCC)C7=O)cc5)cc4)ccc(c23)C1=O (stereo not drawn)	nm	446

Answer with the recorded absorption maximum for the compound listed here: COc1nc(Nc2ccc3c4c(cccc24)C(=O)c2ccccc2-3)nc(OC)n1
426.99

Report measured absorption maximum; entry is CC(=O)c1c2c(cc3cc(N(C)C)ccc13)CCC2
368

Tell me its absorption maximum given CC1(C)c2cccc(-c3nc(-c4ccccc4)nc(-c4ccccc4)n3)c2Oc2c(-n3c4ccccc4c4ccccc43)cccc21 as the entry.
341

In one line, give reported absorption maximum of the entry c1ccc(-c2nc(-c3ccccc3)nc(-c3ccc(-n4c5ccccc5c5cc(-c6ccc7sc8ccccc8c7c6)ccc54)cc3)n2)cc1 .
370

State its absorption maximum: CC(C)(C)c1ccc2c(c1)c1cc(C(C)(C)C)ccc1n2-c1cccc(-c2nc(-c3cccc(P(=O)(c4ccccc4)c4ccccc4)c3)nc(-c3cccc(P(=O)(c4ccccc4)c4ccccc4)c3)n2)c1
343

Look up absorption maximum of COc1nc(Cl)nc(Nc2ccc3c4c(cccc24)C(=O)c2ccccc2-3)n1 and report it.
419.99

Give reported absorption maximum value for CC1(C)c2ccccc2-c2cc3c(cc21)N(c1ccc(-c2nc(-c4ccc(N5c6ccccc6C(c6ccccc6)(c6ccccc6)c6cc7c(cc65)C(C)(C)c5ccccc5-7)cc4)nc(-c4ccc(N5c6ccccc6C(c6ccccc6)(c6ccccc6)c6cc7c(cc65)C(C)(C)c5ccccc5-7)cc4)n2)cc1)c1ccccc1C3(c1ccccc1)c1ccccc1
321

Let me know recorded absorption maximum for c1ccc(-c2nc(-c3ccc(N4c5ccccc5C(c5ccccc5)(c5ccccc5)c5ccccc54)cc3)cc(-c3ccc(N4c5ccccc5C(c5ccccc5)(c5ccccc5)c5ccccc54)cc3)n2)cc1 , thanks.
373

Provide only the value of recorded absorption maximum for COc1cc(N(c2ccccc2)c2ccc(C=C(C#N)C#N)c(OC)c2)ccc1C=C(C#N)C#N
471

Look up and state reported absorption maximum for CCn1c2cc(C(C)(C)C)ccc2c2c3nsnc3c3c4ccc(C(C)(C)C)cc4n(CC)c3c21
425

====

assay: solvent given as SMILES; details: in C1CCOC1
endpoint: absorption maximum (nm)
Kindly answer with a numeric value in nm, unit omitted.

Solved entries:
compound	readout.unit	absorption maximum
C=CC1CN2CCC1CC2[C@@H](OCc1ccccc1)c1ccnc2ccc(O)cc12 (some centres not stated)	nm	338
CCCCC(CC)CN1C(=O)c2cccc3c(C#Cc4ccc(N(c5ccc(C#Cc6ccc7c8c(cccc68)C(=O)N(CC(CC)CCCC)C7=O)cc5)c5ccc(C#Cc6ccc7c8c(cccc68)C(=O)N(CC(CC)CCCC)C7=O)cc5)cc4)ccc(c23)C1=O (configuration not stated)	nm	447
CCOC(=O)COc1ccc(/C=C/C2=C3c4ccccc4C(c4ccc[nH]4)=[N+]3[B-](F)(F)n3ccc(C)c32)cc1	nm	586
CC(C)(C)c1ccc(C2=C(c3ccc(N4c5ccccc5C(C)(C)c5ccccc54)cc3)S(=O)(=O)c3c2sc(-c2ccc(N4c5ccccc5C(C)(C)c5ccccc54)cc2)c3-c2ccc(C(C)(C)C)cc2)cc1	nm	403
CC1CC=C(c2ccc(-c3ccc(C#N)s3)s2)CC1 (configuration not stated)	nm	357
COc1ccc(-c2cc3c(s2)=CC2=C(C(F)(F)F)c4cc5sc(-c6ccc(OC)cc6)cc5n4[B-](F)(F)[N+]=32)cc1	nm	730

Annotate the compound CC(C)(C)c1ccc(-c2c(-c3ccc4c5ccccc5n(-c5ccccc5)c4c3)c(C#N)c(-c3ccc4c5ccccc5n(-c5ccccc5)c4c3)c(-c3ccc(C(C)(C)C)cc3)c2-c2ccc(C(C)(C)C)cc2)cc1 with its measured absorption maximum.
345

====

test: solvent given as SMILES; conditions: in Cc1ccccc1
Mark TRUE for reported absorption maximum of 500 nm or greater; mark FALSE for anything smaller.

Field: example entries. Status: answers known.
C(#Cc1ccc2ncsc2c1)c1ccc(N(c2ccccc2)c2ccccc2)cc1 FALSE
Cc1cc(C)c(C2=C3C=C(/C=C/C(=O)OC(C)(C)C)C=[N+]3[B-](F)(F)n3c2ccc3N2CCOCC2)c(C)c1 TRUE
CC1(C)c2ccccc2N(c2ccc(-c3ccc(C#N)cc3)cc2)c2ccccc21 FALSE
CCCCCCc1ccc2c3c(ccc2c1)O[B-](F)(F)[N+](c1cc([N+]2=Cc4c(ccc5cc(CCCCCC)ccc45)O[B-]2(F)F)cc([N+]2=Cc4c(ccc5cc(CCCCCC)ccc45)O[B-]2(F)F)c1)=C3 FALSE
O=P1(c2ccccc2)c2cc(N3c4ccccc4Oc4ccccc43)ccc2-c2ccc(N3c4ccccc4Oc4ccccc43)cc21 FALSE
O=C(c1ccncc1)c1ccc(-n2c3ccccc3c3ccccc32)cc1 FALSE
CCN(CC)c1ccc2c(C#N)c(/C=C(\C#N)c3nc4ccccc4s3)c(=O)oc2c1 TRUE

Now for another entry.
Hi team, for c1csc(-c2cnc(-c3cccs3)c3nonc23)c1 , is the recorded absorption maximum at or above 500 nm?
FALSE
